Hey, just so you know, these numbers are from BindingDB's records for PubMed 34225181.

Assay: Inhibition of L1 (unknown origin) using cefazolin as substrate incubated for 5 mins by Agilent UV8453 spectrometric analysis

- molecule: "O=C(NNC(=S)S)c1ccccc1O"
  IC50 [nM]: 380
